# tested.target: UniProt P21439
# experiment.notes: ABCB4 WT assay: HiBit protein expression
# run.parameters: HEK-293 cells stably expressing HiBit-tagged ABCB4 WT; 24 h treatment; top concentration 30 μM; read-out: ABCB4 WT EC50, Emax
quantity.measured: EC50

Some solved entries appear below for comparison.
> print(dat)
                                   compound  test.result
1  Cc1cc(C(F)(F)F)nc(C2CC2)c1Oc1nc(-c2cncc(C#N)c2)ccc1S(=O)(=O)NC1COC1      ≥ 25 µM
2  Cc1cc(C)c(Oc2nc(-c3cncc(C#N)c3)ccc2S(C)(=N)=O)c(C)n1 (stereo not drawn)      < 25 µM
3  Cc1cc(C(F)(F)F)nc(C)c1Oc1nc(-c2cncc(C#N)c2)ccc1NS(=O)(=O)C1CC1       < 1 µM
4  Cc1cc(C(F)F)nc(C)c1Oc1nc(-c2cncc(C#N)c2)ccc1NS(=O)(=O)C1CC1       < 1 µM
5  Cc1cc(C(F)F)nc(C)c1Oc1nc(-c2ccnc(C#N)c2)ccc1NS(C)(=O)=O       < 1 µM

// next entry
Value of measured EC50 for the entry Cc1cc(C)c(Oc2nc(-c3c[nH]c(=O)c(C#N)c3)ccc2NS(C)(=O)=O)c(C)n1 : ≥ 25 µM

###

# tested.target: ABCB4 WT (Homo sapiens)
# experiment.notes: ABCB4 WT assay: HiBit protein expression
# run.parameters: HEK-293 cells stably expressing HiBit-tagged ABCB4 WT; 24 h treatment; top concentration 30 μM; read-out: ABCB4 WT EC50, Emax
Listing of recorded EC50 by entry.

> print(dat)
                           structure.string  test.result
1  Cc1cc(OC2CC2)nc(C)c1Oc1nc(-c2cncc(C#N)c2)ccc1NS(C)(=O)=O       < 1 µM
2  Cc1cc(C)c(Oc2nc(-c3cncc(C#N)c3)ccc2N2CCCS2(=O)=O)c(C)n1      ≥ 25 µM
3  Cc1cc(C)c(Oc2nc(-c3cncc(Cl)c3)ccc2S(=O)(=O)NC2CC2)c(C)c1      < 25 µM
4  CNS(=O)(=O)c1ccc(-c2cncc(C#N)c2)nc1Oc1nc(C2CC2)sc1C      < 25 µM
5  Cc1nc(C(F)(F)F)nc(C2CC2)c1Oc1nc(-c2cncc(Cl)c2)ccc1N(C)S(C)(=O)=O      ≥ 25 µM

# Cc1nc(C)c(C2CC2)cc1Oc1nc(-c2cncc(C#N)c2)ccc1NS(C)(=O)=O with ABCB4 WT (Homo sapiens): EC50 is < 25 µM

# COC(=O)c1cncc(-c2ccc(NS(C)(=O)=O)c(Oc3cc(C)n(C)n3)n2)c1 with ABCB4 WT (Homo sapiens): EC50 is < 25 µM

# Cc1cc(C)c(Oc2nc(-c3cncc(C#N)c3)c(O)cc2NS(C)(=O)=O)c(C)n1 with ABCB4 WT (Homo sapiens): EC50 is < 1 µM

# Cc1cc(C)[n+]([O-])c(C)c1Oc1nc(-c2cncc(C#N)c2)ccc1NS(C)(=O)=O with ABCB4 WT (Homo sapiens): EC50 is 1 to 10 µM

###

Listing of recorded pEC50 by entry.
# tested.target: UniProt:O95255
# Sequence (O95255 whole entry): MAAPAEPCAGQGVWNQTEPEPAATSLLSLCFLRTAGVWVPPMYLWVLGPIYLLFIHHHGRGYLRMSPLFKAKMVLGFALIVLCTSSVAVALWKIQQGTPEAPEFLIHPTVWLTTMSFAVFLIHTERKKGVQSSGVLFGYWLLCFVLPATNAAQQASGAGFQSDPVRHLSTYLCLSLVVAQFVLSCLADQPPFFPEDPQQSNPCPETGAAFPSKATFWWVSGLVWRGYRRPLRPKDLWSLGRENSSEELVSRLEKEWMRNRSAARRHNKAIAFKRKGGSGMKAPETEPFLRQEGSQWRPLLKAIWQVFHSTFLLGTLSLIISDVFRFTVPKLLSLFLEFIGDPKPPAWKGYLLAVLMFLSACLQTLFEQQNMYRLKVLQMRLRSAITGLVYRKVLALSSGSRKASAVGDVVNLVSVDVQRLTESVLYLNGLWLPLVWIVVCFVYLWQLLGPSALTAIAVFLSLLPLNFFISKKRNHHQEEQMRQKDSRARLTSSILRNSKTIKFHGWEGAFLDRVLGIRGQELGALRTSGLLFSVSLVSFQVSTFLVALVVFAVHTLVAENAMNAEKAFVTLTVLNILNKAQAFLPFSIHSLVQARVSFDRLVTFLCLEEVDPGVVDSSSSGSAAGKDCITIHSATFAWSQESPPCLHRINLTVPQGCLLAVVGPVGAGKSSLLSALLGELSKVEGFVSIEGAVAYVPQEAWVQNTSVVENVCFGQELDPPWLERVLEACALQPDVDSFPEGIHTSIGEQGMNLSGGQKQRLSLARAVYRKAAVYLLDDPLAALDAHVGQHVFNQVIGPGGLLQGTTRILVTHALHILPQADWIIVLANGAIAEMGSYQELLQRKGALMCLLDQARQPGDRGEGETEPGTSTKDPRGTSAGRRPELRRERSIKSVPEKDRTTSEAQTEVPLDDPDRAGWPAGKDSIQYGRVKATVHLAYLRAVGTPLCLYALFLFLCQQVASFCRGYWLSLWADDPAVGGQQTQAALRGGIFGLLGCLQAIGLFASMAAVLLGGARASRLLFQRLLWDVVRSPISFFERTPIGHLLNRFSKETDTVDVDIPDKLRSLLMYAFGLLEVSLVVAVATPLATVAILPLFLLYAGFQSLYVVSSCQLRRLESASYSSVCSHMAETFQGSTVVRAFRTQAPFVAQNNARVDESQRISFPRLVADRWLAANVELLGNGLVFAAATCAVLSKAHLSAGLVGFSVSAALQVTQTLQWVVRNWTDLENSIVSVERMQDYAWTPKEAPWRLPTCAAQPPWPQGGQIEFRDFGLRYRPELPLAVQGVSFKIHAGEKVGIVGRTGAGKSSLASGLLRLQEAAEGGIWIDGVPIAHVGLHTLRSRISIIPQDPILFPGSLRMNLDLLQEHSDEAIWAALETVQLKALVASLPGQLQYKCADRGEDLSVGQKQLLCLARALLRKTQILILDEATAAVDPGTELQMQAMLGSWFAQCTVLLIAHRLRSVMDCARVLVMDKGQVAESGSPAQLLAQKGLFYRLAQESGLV
# experiment.notes: ABCC6 WT assay: HiBit protein expression
# run.parameters: HEK-293 cells transiently expressing HiBit-tagged ABCC6 WT; 24 h treatment; top concentration 20 μM; read-out: ABCC6 WT EC50, Emax
pEC50: −log10 of the molar value.

Some solved entries appear below for comparison.
> print(dat)
                           structure.string  quantity.measured   test.result
1  Cc1cc(C)c(Oc2nc(-c3cccc(Cl)c3)ccc2S(N)(=O)=O)c(C)c1              pEC50  5.00 to 6.00
2  Cc1cc(C)c(Oc2nc(N3CCn4c(cnc4C)C3)ccc2NS(C)(=O)=O)c(C)c1              pEC50  5.00 to 6.00
3  Cc1nc(C(F)F)nc(C)c1Oc1nc(-c2cncc(C#N)c2)ccc1NS(C)(=O)=O              pEC50        > 6.00
4  CNS(=O)(=O)c1ccc(-c2cncc(C#N)c2)nc1Oc1c(C)cc(C(F)(F)F)nc1C1CC1              pEC50  5.00 to 6.00

// next entry
Value of measured pEC50 for the entry Cc1cc(C)c(Oc2nc(-n3cnc(C#N)c3)ccc2N(C)S(C)(=O)=O)c(C)c1 : 5.00 to 6.00

###

# tested.target: ABCA4 P1380L (Homo sapiens, UniProt P78363, P1380L)
# Construct: expressed in transfected cells
# Sequence (P78363 whole entry P1380L): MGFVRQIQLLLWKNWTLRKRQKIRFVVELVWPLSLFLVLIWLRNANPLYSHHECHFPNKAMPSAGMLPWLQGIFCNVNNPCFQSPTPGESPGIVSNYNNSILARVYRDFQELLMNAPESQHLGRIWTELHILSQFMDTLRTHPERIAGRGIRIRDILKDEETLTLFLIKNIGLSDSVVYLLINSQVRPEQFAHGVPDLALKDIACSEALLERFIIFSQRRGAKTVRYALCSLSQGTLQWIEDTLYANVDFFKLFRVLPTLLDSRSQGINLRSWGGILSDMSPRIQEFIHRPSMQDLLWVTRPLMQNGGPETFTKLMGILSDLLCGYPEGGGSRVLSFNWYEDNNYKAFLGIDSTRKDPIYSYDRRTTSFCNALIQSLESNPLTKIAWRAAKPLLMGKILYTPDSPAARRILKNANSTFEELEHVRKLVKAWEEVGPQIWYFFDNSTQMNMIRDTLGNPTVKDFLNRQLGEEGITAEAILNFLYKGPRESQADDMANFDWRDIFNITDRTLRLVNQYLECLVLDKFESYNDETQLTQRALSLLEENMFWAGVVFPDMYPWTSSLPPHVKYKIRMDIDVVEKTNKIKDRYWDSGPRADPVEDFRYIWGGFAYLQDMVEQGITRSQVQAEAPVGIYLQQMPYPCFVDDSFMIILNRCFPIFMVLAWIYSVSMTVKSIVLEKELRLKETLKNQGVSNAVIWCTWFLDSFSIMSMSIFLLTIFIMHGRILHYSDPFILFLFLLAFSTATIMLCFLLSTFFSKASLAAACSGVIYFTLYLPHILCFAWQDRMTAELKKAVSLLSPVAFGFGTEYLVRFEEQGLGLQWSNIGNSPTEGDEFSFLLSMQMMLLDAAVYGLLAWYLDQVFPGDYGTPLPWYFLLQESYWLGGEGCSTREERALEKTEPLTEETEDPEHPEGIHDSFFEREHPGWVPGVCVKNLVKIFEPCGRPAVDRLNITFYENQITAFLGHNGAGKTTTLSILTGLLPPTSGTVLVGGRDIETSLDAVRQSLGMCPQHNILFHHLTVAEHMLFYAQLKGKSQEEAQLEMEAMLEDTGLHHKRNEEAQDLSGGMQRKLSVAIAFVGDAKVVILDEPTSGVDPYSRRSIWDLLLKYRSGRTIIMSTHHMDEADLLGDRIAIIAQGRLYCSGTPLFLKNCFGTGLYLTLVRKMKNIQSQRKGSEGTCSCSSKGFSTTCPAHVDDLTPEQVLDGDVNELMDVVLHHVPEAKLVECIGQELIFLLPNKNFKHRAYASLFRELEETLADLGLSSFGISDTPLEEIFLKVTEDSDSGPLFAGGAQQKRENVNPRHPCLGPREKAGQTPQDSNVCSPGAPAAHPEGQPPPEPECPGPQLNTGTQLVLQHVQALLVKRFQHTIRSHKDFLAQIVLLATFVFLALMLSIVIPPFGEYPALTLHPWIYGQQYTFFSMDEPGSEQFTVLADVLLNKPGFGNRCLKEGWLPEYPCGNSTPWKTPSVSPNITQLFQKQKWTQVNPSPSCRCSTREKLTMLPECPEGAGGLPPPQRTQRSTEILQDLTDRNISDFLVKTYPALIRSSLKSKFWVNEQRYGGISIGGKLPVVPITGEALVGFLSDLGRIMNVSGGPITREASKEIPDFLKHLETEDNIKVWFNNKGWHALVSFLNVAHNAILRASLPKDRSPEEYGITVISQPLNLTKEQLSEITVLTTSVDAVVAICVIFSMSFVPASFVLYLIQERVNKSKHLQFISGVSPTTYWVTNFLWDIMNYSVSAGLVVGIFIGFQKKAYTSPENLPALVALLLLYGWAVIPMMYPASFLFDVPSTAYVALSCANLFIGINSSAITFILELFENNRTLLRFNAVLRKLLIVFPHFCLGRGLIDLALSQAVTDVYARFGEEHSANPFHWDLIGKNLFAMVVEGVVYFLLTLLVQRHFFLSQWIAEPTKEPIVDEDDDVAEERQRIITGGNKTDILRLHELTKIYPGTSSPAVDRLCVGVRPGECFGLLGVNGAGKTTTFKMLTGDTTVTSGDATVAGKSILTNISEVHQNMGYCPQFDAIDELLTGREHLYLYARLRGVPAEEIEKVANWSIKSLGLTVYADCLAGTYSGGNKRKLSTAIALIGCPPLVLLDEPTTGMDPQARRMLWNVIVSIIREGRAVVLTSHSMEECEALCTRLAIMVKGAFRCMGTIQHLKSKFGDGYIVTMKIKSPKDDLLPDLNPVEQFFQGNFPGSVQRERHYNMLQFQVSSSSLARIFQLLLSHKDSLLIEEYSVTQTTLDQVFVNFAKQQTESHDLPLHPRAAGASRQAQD
# experiment.notes: A4 correction dose-response assay: ABCA4 P1380L HiBit protein expression
# Assay type: cell-based
# run.parameters: HEK-293 cells stably expressing HiBit-tagged ABCA4 P1380L; 24 h treatment; top concentration 30 μM; read-out: ABCA4 P1380L EC50, Emax
pEC50: −log10 of the molar value.
quantity.measured: pEC50

> print(dat)
                           structure.string                             tested.target   test.result
1  Cc1cc(C)c(Oc2cc(-c3cncc(Cl)c3)cnc2NS(C)(=O)=O)c(C)c1  ABCA4 P1380L (Homo sapiens, UniProt P78363, P1380L)        > 4.60
2  Cc1cc(C)c(Oc2nc(-c3cncc(Cl)c3)ccc2N(C)S(=O)(=O)c2cnn(C)c2)c(C2CC2)c1  ABCA4 P1380L (Homo sapiens, UniProt P78363, P1380L)  5.00 to 6.00

// next entry
Value of measured pEC50 for the entry Cc1cc(C)c(Oc2nc(-c3cncc(C#N)c3)ccc2NS(=O)(=O)C2COC2)c(C)c1 : > 4.60

###

# tested.target: ABCB4 WT (Homo sapiens, UniProt P21439)
# experiment.notes: ABCB4 WT assay: HiBit protein expression
# run.parameters: HEK-293 cells stably expressing HiBit-tagged ABCB4 WT; 24 h treatment; top concentration 30 μM; read-out: ABCB4 WT EC50, Emax
# Protocol: To assess activity against ABCB4, compounds were screened in an assay measuring protein expression, using cells transfected with cDNA encoding HiBit-tagged ABCB4 wild-type. […] Dose response curves include eleven doses with the top final concentration at 30 μM in 0.3% DMSO. […] The plates are rotated at room temperature for 2 minutes and incubated for 1 hour at 25° C. before luminescent signal is acquired using an EnVision Multimode Plate Reader (PerkinElmer). […]
pEC50: −log10 of the molar value.
quantity.measured: pEC50

Some solved entries appear below for comparison.
> print(dat)
                                   compound   test.result
1  Cc1cc(C(F)F)nc(C)c1Oc1nc(-c2cncc(Cl)c2)ccc1NS(C)(=O)=O [Compound I-202]        > 4.60
2  Cc1cc(C)c(Oc2nc(-c3cnn(C)c3C)ccc2NS(C)(=O)=O)c(C)c1 [Compound I-13]  5.00 to 6.00

// next entry
Value of measured pEC50 for the entry Cc1cc(Oc2nc(-c3cncc(C#N)c3)ccc2NS(C)(=O)=O)c(C)nc1C1CC1 [Compound I-127] : > 6.00

###

# tested.target: ABCD2 WT (Homo sapiens, UniProt Q9UBJ2)
# Sequence (Q9UBJ2 whole entry): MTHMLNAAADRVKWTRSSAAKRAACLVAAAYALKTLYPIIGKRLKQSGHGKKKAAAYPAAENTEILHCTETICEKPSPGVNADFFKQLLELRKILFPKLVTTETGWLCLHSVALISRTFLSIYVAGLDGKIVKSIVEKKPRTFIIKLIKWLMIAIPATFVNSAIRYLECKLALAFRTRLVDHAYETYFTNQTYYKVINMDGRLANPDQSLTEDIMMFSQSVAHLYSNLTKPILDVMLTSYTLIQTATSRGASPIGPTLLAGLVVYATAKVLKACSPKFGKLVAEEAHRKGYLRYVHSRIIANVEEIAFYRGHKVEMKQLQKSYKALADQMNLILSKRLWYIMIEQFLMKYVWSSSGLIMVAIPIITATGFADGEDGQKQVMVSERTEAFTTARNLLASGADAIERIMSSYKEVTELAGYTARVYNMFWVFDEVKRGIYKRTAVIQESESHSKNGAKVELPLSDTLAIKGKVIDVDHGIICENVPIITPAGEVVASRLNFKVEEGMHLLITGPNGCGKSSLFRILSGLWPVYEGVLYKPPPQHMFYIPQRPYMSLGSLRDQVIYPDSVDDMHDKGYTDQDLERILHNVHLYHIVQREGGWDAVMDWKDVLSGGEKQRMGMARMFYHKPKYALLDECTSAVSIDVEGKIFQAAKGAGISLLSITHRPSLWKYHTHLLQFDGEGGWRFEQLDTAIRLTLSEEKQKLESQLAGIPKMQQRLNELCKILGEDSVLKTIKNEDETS
# experiment.notes: D2 correction dose-response assay: ABCD2 WT HiBit protein expression
# run.parameters: HEK-293/ABCD2 WT cells, 24 hours treatment, HiBit luminescence; class combines EC50 and Mean MaxAct (fold); read-out: ABCD2 WT EC50, Emax
pEC50: −log10 of the molar value.
quantity.measured: pEC50

> print(dat)
                                   molecule   test.result
1  Cc1ccc(Oc2nc(-c3cncc(C#N)c3)ccc2NS(C)(=O)=O)c(C)n1 [Compound I-3]  5.00 to 6.00
2  Cc1nc(Oc2nc(-c3cncc(C#N)c3)ccc2NS(C)(=O)=O)c(C)s1 [Compound I-107]        > 6.00
3  Cc1cc(C)c(Oc2nc(N3CC4CC3CN4C(=O)C3CC3)ccc2NS(C)(=O)=O)c(C)c1 (single isomer, unassigned) [Compound I-18]        < 4.60
4  Cc1cc(C)c(Oc2nc(-c3cc(C#N)cnc3C)ccc2NS(C)(=O)=O)c(C)n1 [Compound I-270]  5.00 to 6.00
5  Cc1cc(C2CC2)nc(C)c1Oc1nc(N2CCN(C(=O)C3CC3)CC2)ccc1NS(C)(=O)=O [Compound I-28]        < 4.60
6  Cc1cc(C)c(Oc2nc(-c3cncc(Cl)c3)ccc2N(C)S(=O)(=O)Cc2ccccc2)c(C)c1 [Compound I-64]  5.00 to 6.00

// next entry
# Cc1cc(C(F)F)nc(C)c1Oc1nc(-c2cncc(C#N)c2)ccc1NS(C)(=O)=O [Compound I-230] with ABCD2 WT (Homo sapiens, UniProt Q9UBJ2): pEC50 is > 6.00

Origin of the recorded values: patent US20250228835A1
